Source listed as patent US20230293638A1.

target: human GLP-1 receptor (human, UniProt P43220 24-463); assay: cell-based or functional assay
A collection of binders and their measured hGLPIR cAMP EC50 ratio
measure: hGLPIR cAMP EC50 ratio

# binder, observed-measurement
rows = [
    ("YXEGTXTSDYSIXLDEKAQXEFIEYLIEGG (Aib2; αMeF(2F)6; αMeL13; K17((2-[2-(2-Amino-ethoxy)-ethoxy]-acetyl)2-(γGlu)-CO-(CH2)18-CO2H); Aib20; C-terminal NH2) [Peptide 103]", 0.655),
    ("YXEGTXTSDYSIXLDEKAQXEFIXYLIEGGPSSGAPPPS (Aib2; αMeF(2F)6; αMeL13; K17((2-[2-(2-Amino-ethoxy)-ethoxy]-acetyl)2-(γGlu)-CO-(CH2)18-CO2H); Aib20; Aad24; C-terminal NH2) [Peptide 147]", 1.13),
    ("YXEGTXTSDYSIXLDKKAQXAFIEYLIEGGPSSGAPPPS (Aib2; αMeF6; αMeL13; K17((2-[2-(2-Amino-ethoxy)-ethoxy]-acetyl)2-(γGlu)-CO-(CH2)18-CO2H); Aib20; C-terminal NH2) [Peptide 69]", 0.85),
    ("YXEGTFTSDYSILLDKKAQXAFIEYLIXGGPSSGAPPPS (Aib2; K17((2-[2-(2-Amino-ethoxy)-ethoxy]-acetyl)2-(γGlu)-CO-(CH2)18-CO2H); Aib20; D-Glu28; C-terminal NH2) [Peptide 83]", 0.166),
    ("YXEGTFTSDYSIXLDEKAQXAFIEYLIEGG (Aib2; αMeL13; K17((2-[2-(2-Amino-ethoxy)-ethoxy]-acetyl)2-(γGlu)-CO-(CH2)18-CO2H); Aib20; C-terminal NH2) [Peptide 63]", 0.386),
    ("YXEGTXTSDYSIXLDEKAQXEFIEYLIEGG (Aib2; αMeF(2F)6; αMeL13; K17((2-[2-(2-Amino-ethoxy)-ethoxy]-acetyl)2-(γGlu)-CO-(CH2)16-CO2H); Aib20; C-terminal NH2) [Peptide 104]", 1.85),
]
